Here, each record is paired with measured AIRE transcriptional activation functional score data.
B1: library; numbered along this chain (parent)
chain: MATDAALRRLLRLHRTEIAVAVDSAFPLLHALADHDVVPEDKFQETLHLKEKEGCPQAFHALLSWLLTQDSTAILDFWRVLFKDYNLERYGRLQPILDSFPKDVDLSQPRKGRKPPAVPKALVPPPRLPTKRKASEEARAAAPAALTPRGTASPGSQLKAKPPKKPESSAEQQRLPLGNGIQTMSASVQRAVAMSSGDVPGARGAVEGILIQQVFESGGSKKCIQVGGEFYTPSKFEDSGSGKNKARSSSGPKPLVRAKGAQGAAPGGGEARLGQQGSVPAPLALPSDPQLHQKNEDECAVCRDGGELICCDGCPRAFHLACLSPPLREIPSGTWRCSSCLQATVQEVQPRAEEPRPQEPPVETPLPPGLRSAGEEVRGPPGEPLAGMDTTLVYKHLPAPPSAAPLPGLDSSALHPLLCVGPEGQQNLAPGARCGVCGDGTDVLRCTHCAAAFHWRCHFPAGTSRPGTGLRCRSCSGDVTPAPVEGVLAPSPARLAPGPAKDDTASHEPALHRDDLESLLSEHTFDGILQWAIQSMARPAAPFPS

- Variants of: B1
- Protocol text: AIRE transcriptional activation functional score (insulin promoter-GFP; nonsense median 0, synonymous median 1) (normalised score); higher = higher AIRE activity (more reporter activation)
- Particulars: with insulin promoter-GFP reporter in HEK293
Measured property: AIRE transcriptional activation functional score

Alteration | Experimental result
R356V | 0.975
V443R | 0.0498
W455P | 1.3
S153H | 1.41
S278L | 1.01
F525A | 0.406
A31C | -0.0426
P129K | 1.07
R356I | 1.03
P148D | 0.772
A246K | 0.609
G251W | 1.36
K221I | -0.82
K161P | 0.742
L255T | 0.506
A205R | 0.318
G218I | 1.14
H48S | -0.318
L327S | 1.14
L128E | 0.0699
Q426L | 1.06
G218R | 1.13
A246F | 1.39
R456P | 1.1
V377S | 0.916
G201W | 0.489
P492G | 1.01
Q108F | 0.53
E237L | 1.16
C302E | 0.654
A144R | 0.836
I74L | 0.0101
A451F | -0.0649
F82V | 0.0231
S278Q | 1.16
Y90H | 0.364
Q213E | 0.718
F77Q | -0.44
D76V | 0.795
S249I | 1.25
K235Q | 1.04
P481H | 1.14
V377Q | 0.854
P200T | 0.911
L81C | 0.822
P101M | 0.0755
